Exercise: state measured normalised viability for each of the compounds provided.
Test system: Hs578T
Assay: normalised viability (% of control), CellTiter-Blue; higher = more viable cells (100 = DMSO, 0 = benzethonium chloride kill control)
Conditions: incubation time: 72 h
Answers are plain numbers, in %.

Q. Enter reported normalised viability observed with Hs578T for CO[C@H]1/C=C\C=C(/C)C(=O)NC2=CC(=O)C(NCCN(C)C)=C(C[C@@H](C)C[C@H](OC)[C@H](O)[C@@H](C)/C=C(\C)[C@@H]1OC(N)=O)C2=O [Alvespimycin] (0.1 nM)
A. 117

Q. Enter reported normalised viability observed with Hs578T for Cn1c(CCCC(=O)O)nc2cc(N(CCCl)CCCl)ccc21 [Bendamustine] (1 nM)
A. 104

Q. Enter reported normalised viability observed with Hs578T for N[C@@H](CSC(c1ccccc1)(c1ccccc1)c1ccccc1)C(=O)O [S-trityl-L-cysteine] (4 nM)
A. 106

Q. Enter reported normalised viability observed with Hs578T for O=C1CCC(N2C(=O)c3ccccc3C2=O)C(=O)N1 (configuration not stated) [Thalidomide] (1 nM)
A. 106

Q. Enter reported normalised viability observed with Hs578T for Clc1ccc(Nc2nnc(Cc3ccncc3)c3ccccc23)cc1 [Vatalanib] (1 nM)
A. 99.8

Your task in this section: give normalised viability for each listed record.
1. CN(C)/N=N/c1[nH]cnc1C(N)=O [Dacarbazine] (1 nM)
2. CNCc1ccc(-c2[nH]c3cc(F)cc4c3c2CCNC4=O)cc1 [Rucaparib] (1 nM)
3. CN[C@@H]1C[C@H]2O[C@@](C)([C@@H]1OC)n1c3ccccc3c3c4c(c5c6ccccc6n2c5c31)C(=O)N[C@H]4O [UCN-01] (1 nM)
4. Cc1ccc(C(=O)N(CCCN)[C@@H](c2oc3cc(Cl)ccc3c(=O)c2Cc2ccccc2)C(C)C)cc1 (0.1 nM)
5. C#Cc1cccc(Nc2ncnc3cc(OCCOC)c(OCCOC)cc23)c1 [Erlotinib] (1 nM)
6. Oc1nc(-c2ccc(C(F)(F)F)cc2)nc2c1CSCC2 [XAV-939] (1 nM)
7. C=C(c1ccc(C(=O)O)cc1)c1cc2c(cc1C)C(C)(C)CCC2(C)C [Bexarotene] (1 nM)

A.
[106, 97.4, 106, 135, 84, 89.6, 111]

###

Exercise: state measured normalised viability for each of the molecules provided.
Test system: CAL-51
Assay: normalised viability (% of control), CellTiter-Blue; higher = more viable cells (about 100 = DMSO control)
Details: incubation time: 72 h
In your response, put the unit directly after the numeric value.

Sample answers from the record:
Q. Which normalised viability value belongs to O=C1CCC(N2C(=O)c3ccccc3C2=O)C(=O)N1 (stereo not given) [Thalidomide] (3000 nM) ?
A. 89.8%

Q. Which normalised viability value belongs to CCN(CCCOc1ccc2c(Nc3cc(CC(=O)Nc4cccc(F)c4)[nH]n3)ncnc2c1)CCOP(=O)(O)O [Barasertib] (300 nM) ?
A. 54%

Q. Which normalised viability value belongs to O=P1(NCCCl)OCCCN1CCCl (stereo not given) [Ifosfamide] (3000 nM) ?
A. 97.4%

Q. Which normalised viability value belongs to COc1cc2nccc(Oc3ccc(NC(=O)C4(C(=O)Nc5ccc(F)cc5)CC4)cc3)c2cc1OC [Cabozantinib] (300 nM) ?
A. 104%

Q. Which normalised viability value belongs to Clc1ccc(Nc2nnc(Cc3ccncc3)c3ccccc23)cc1 [Vatalanib] (3000 nM) ?
A. 104%

Your task in this section: give normalised viability for each listed record.
1. Cc1ccc(C(=O)Nc2ccc(CN3CCN(C)CC3)c(C(F)(F)F)c2)cc1C#Cc1cnc2cccnn12 [Ponatinib] (300 nM)
2. NCC(=O)CCC(=O)O [Aminolevulinic acid] (3000 nM)
3. C[C@]12CC[C@@H]3c4ccc(O)cc4C[C@@H](CCCCCCCCC[S+]([O-])CCCC(F)(F)C(F)(F)F)[C@H]3[C@@H]1CC[C@@H]2O (stereo not given in full) [Fulvestrant] (3000 nM)
4. Cn1c(CCCC(=O)O)nc2cc(N(CCCl)CCCl)ccc21 [Bendamustine] (3000 nM)
5. Cc1ccc(-n2nc(C(C)(C)C)cc2NC(=O)Nc2ccc(OCCN3CCOCC3)c3ccccc23)cc1 [Doramapimod] (3000 nM)

A.
73.9%
109%
99.7%
112%
102%

###

Tested on: DU-4475
Assay: drug sensitivity score (DSS), CellTox Green (DSS (AUC-based score)); higher = stronger drug effect (viability inhibition or cytotoxicity); extreme values may be limits of the assay
Conditions: incubation time: 72 h
Exercise: state measured drug sensitivity score for each of the molecules provided.
Answers are plain numbers.

Your task in this section: give drug sensitivity score for each listed record.
1. CNCc1ccc(-c2[nH]c3cc(F)cc4c3c2CCNC4=O)cc1
2. Cc1ccc(C(=O)N(CCCN)[C@@H](c2oc3cc(Cl)ccc3c(=O)c2Cc2ccccc2)C(C)C)cc1
3. C#Cc1cccc(Nc2ncnc3cc(OCCOC)c(OCCOC)cc23)c1
4. CS(=O)(=O)c1ccc(C2=C(c3ccccc3)C(=O)OC2)cc1
5. COc1cc([C@@H]2c3cc4c(cc3[C@@H](O[C@@H]3O[C@@H]5CO[C@@H](C)O[C@H]5[C@H](O)[C@H]3O)[C@H]3COC(=O)[C@H]23)OCO4)cc(OC)c1O [Etoposide]

A.
0
0
0
0
0.895

Your task in this section: give drug sensitivity score for each listed record.
1. C[C@@H](Oc1cc(-c2cnn(C3CCNCC3)c2)cnc1N)c1c(Cl)ccc(F)c1Cl
2. Clc1ccc(Nc2nnc(Cc3ccncc3)c3ccccc23)cc1
3. O=C1CCC(N2C(=O)c3ccccc3C2=O)C(=O)N1 (stereo unspecified) [Thalidomide]
4. Cn1c(Nc2ccc(C(F)(F)F)cc2)nc2cc(Oc3ccnc(-c4ncc(C(F)(F)F)[nH]4)c3)ccc21
5. CN[C@@H]1C[C@H]2O[C@@](C)([C@@H]1OC)n1c3ccccc3c3c4c(c5c6ccccc6n2c5c31)C(=O)N[C@H]4O
6. O=C(O)c1ccc(-c2c[nH]c3ncc(-c4ccccc4)cc23)cc1C1CCCC1

A.
0
0
0
0
4.48
0

###

System: CAL-51
Assay: normalised response (% of control), CellTox Green; higher = less cell death (100 = DMSO, 0 = benzethonium chloride kill control)
Details: incubation time: 72 h
Is normalised response at least 90%? Then true. If not, false.

Q. I'd appreciate it if you could say whether CS(=O)(=O)c1ccc(C2=C(c3ccccc3)C(=O)OC2)cc1 [Rofecoxib] (1000 nM) has normalised response at least equal to 90%.
A. true

###

Tested on: CAL-120
Assay: normalised viability (% of control), CellTiter-Blue; higher = more viable cells (about 100 = DMSO control)
Conditions: 1000 nM; incubation time: 72 h
value.kind: normalised viability (%)
Answers are plain numbers, in %.

Sample answers from the record:
Q. Which normalised viability value belongs to O=P1(NCCCl)OCCCN1CCCl (stereo not given) [Ifosfamide] ?
A. 99.3

Q. Which normalised viability value belongs to C#Cc1cccc(Nc2ncnc3cc(OCCOC)c(OCCOC)cc23)c1 ?
A. 95.1

Q. Which normalised viability value belongs to CN[C@@H]1C[C@H]2O[C@@](C)([C@@H]1OC)n1c3ccccc3c3c4c(c5c6ccccc6n2c5c31)C(=O)N[C@H]4O ?
A. 17.7

Q. Which normalised viability value belongs to N.N.[Cl][Pt][Cl] [Cisplatin] ?
A. 93.3

Q. Which normalised viability value belongs to CNCc1ccc(-c2[nH]c3cc(F)cc4c3c2CCNC4=O)cc1 ?
A. 81

Your task in this section: give normalised viability for each listed record.
1. Cc1ccc(C(=O)Nc2ccc(CN3CCN(C)CC3)c(C(F)(F)F)c2)cc1C#Cc1cnc2cccnn12
2. C[C@]12CC[C@@H]3c4ccc(O)cc4C[C@@H](CCCCCCCCC[S+]([O-])CCCC(F)(F)C(F)(F)F)[C@H]3[C@@H]1CC[C@@H]2O (stereo not given in full)
3. CCN(CCCOc1ccc2c(Nc3cc(CC(=O)Nc4cccc(F)c4)[nH]n3)ncnc2c1)CCOP(=O)(O)O
4. Oc1nc(-c2ccc(C(F)(F)F)cc2)nc2c1CSCC2
5. COc1cc2nccc(Oc3ccc(NC(=O)C4(C(=O)Nc5ccc(F)cc5)CC4)cc3)c2cc1OC [Cabozantinib]

A.
1: 13.8; 2: 90.7; 3: 51.7; 4: 92.8; 5: 86.5

###

Test system: SK-BR-3
Test: normalised viability (% of control), CellTiter-Blue; higher = more viable cells (about 100 = DMSO control)
Settings: 10000 nM; incubation time: 72 h
Hi! Could you tag entries with normalised viability below 80% as rule met, and those at or above as rule not met? Much appreciated.

Q. Please determine if C[C@]12CC[C@@H]3c4ccc(O)cc4C[C@@H](CCCCCCCCC[S+]([O-])CCCC(F)(F)C(F)(F)F)[C@H]3[C@@H]1CC[C@@H]2O (stereo partly specified) is below 80% in terms of normalised viability.
A. rule not met

New cases:
Q. Please determine if N.N.[Cl][Pt][Cl] [Cisplatin] is below 80% in terms of normalised viability.
A. rule not met

Q. Please determine if C[C@@H](Oc1cc(-c2cnn(C3CCNCC3)c2)cnc1N)c1c(Cl)ccc(F)c1Cl is below 80% in terms of normalised viability.
A. rule met

Q. Please determine if O=C1CCC(N2C(=O)c3ccccc3C2=O)C(=O)N1 (stereo unspecified) [Thalidomide] is below 80% in terms of normalised viability.
A. rule not met

Q. Please determine if CN[C@@H]1C[C@H]2O[C@@](C)([C@@H]1OC)n1c3ccccc3c3c4c(c5c6ccccc6n2c5c31)C(=O)N[C@H]4O is below 80% in terms of normalised viability.
A. rule met

Hey, just so you know, these numbers are from the supplement of paper PMC4862054.
